Measured TGI, listed per entry for reference.
# Test system: SF-268 CNS
# Assay overview: NCI tumour cell line growth inhibition, 48 h
# number only, unit µM dropped from output

>  <Molecule>
C/C=C(\C)C(=O)O[C@@H]1C=CC(=O)O[C@H]1CNC(=O)[C@H](C)O

>  <System tested>
SF-268 CNS

>  <TGI / µM>
51.3

$$$$
>  <Molecule>
Nc1cc(N)c2nc(-c3ccccc3)c(NCc3ccc(Cl)c(Cl)c3)nc2c1

>  <System tested>
SF-268 CNS

>  <TGI / µM>
55.2

$$$$

Data point: CC[C@]1(Cc2ccc(OC)c(OC)c2)C=[N+]([O-])O[C@H](OCc2ccccc2)[C@@H]1OC(C)=O ; TGI = 70.9

Data point: C(=C\c1ccc(OCC2CO2)cc1)/C1=NCOC1 (configuration not stated) ; TGI = 33.8

Data point: CN(C)CCNC(=O)c1cccc2c1nc(-c1ccncc1)c1ccccc12 ; TGI = 19.7

Data point: COC(=O)c1cc2c(cc1C(=O)OC)[C@@]1(C)CCCC(C)(C)C1CC2 (some centres not stated) ; TGI = 31.2

Data point: COc1ccc2[nH]c3c(O)c(-c4c(C)cc5c([nH]c6ccc(OC)cc65)c4O)c(C)cc3c2c1 ; TGI = 8.06

Data point: CCCCC[C@H]1C/C=C2/C(=O)C(Cl)=C[C@@H]2C/C=C\CCCC(=O)O1 ; TGI = 3.72

====

Measured TGI, listed per entry for reference.
# System: HCT-15 colon
# Assay overview: NCI tumour cell line growth inhibition, 48 h

Some entries whose results are on file:
>  <Molecule>
CCC(=O)CCC1=Nc2nnc(CCCCc3nnc4n3C(=O)C(CCC(=O)CC)=N4)n2C1=O

>  <TGI>
> 100 µM

$$$$
>  <Molecule>
NCCCNc1nc2ccccc2c2c(=O)c3cc(F)cc(Cl)c3sc12

>  <TGI>
3.01 µM

$$$$
>  <Molecule>
COc1ccc(C(Nc2ccccn2)c2cc(C(C)(C)C)cc(C(C)(C)C)c2O)cc1 (stereo not given)

>  <TGI>
> 100 µM

$$$$
>  <Molecule>
O=C(NCCN(CCNC(=O)c1cccc(=O)n1O)CCNC(=O)c1cccc(=O)n1O)c1cccc(=O)n1O

>  <TGI>
> 100 µM

$$$$
>  <Molecule>
CCC(C(=O)[C@@H](C)[C@@H](O)[C@H](C)[C@@H]1O[C@@H]([C@@H](CC)C(=O)ONC(=O)c2ccccc2)CC[C@@H]1C)[C@H]1O[C@]2(C=CC(=O)[C@]3(CC[C@@](C)([C@H]4CC[C@](O)(CC)[C@H](C)O4)O3)O2)[C@H](C)C[C@@H]1C (stereo not given in full)

>  <TGI>
1.61 µM

$$$$

Record N#Cc1c(N)c2c(c(-c3ccccc3)c1-c1ccccc1)C(=O)N(O)C2=O has HCT-15 colon TGI equal to > 100 µM

Record Nn1c(CCCCCCCCc2n[nH]c(=S)n2N)n[nH]c1=S has HCT-15 colon TGI equal to > 100 µM

Record C=CCC1C(=O)CC2(C)C(CC=C)C(=O)CC12C (stereo not given) has HCT-15 colon TGI equal to > 100 µM

Record CN(C)CCNC(=O)c1cccc2c1nc(-c1ccncc1)c1ccccc12 has HCT-15 colon TGI equal to 13.4 µM

Record COC(=O)CNC(=O)CSc1nnc(COc2ccc(Cl)cc2)n1-c1ccccc1 has HCT-15 colon TGI equal to > 100 µM

Record C/C=C1/C(=Cc2[nH]c(C=c3[nH]/c(=C/C4=NC(=O)C(CC)=C4C)c(C)c3CCC(=O)O)c(CCC(=O)O)c2C)NC(=O)C1C (stereo not given) has HCT-15 colon TGI equal to > 50 µM

====

# Tested on: NCI-H23 lung
# Assay overview: NCI tumour cell line growth inhibition, 48 h
Measured TGI, listed per entry for reference.

>  <Compound>
Oc1ccc(/C=N/c2nccs2)c(O)c1

>  <TGI>
> 100 µM

$$$$
>  <Compound>
O=C1C2C3C=C4c5ccccc5N(c5ccccc5)C4([C@@H]2C(=O)N1c1ccc(F)cc1)[C@H]1C(=O)N(c2ccc(F)cc2)C(=O)[C@@H]31 (stereo partly drawn)

>  <TGI>
> 100 µM

$$$$
>  <Compound>
Cc1ccc2c(c1)C(O)(c1ccccc1)CCS2 (stereo not drawn)

>  <TGI>
89.9 µM

$$$$
>  <Compound>
C/C(=N\NC(=S)N1CCN(c2ccccn2)CC1)c1cccc2cccnc12

>  <TGI>
> 100 µM

$$$$
>  <Compound>
C[C@]12CC[C@H](O)CC1=CC[C@@H]1[C@@H]2CC[C@]2(C)NC(=O)/C(=C\c3ccccc3)C[C@@H]12

>  <TGI>
40.7 µM

$$$$
>  <Compound>
O=C(CCN1CCCC1)c1ccc(Oc2ccc(F)cc2)cc1

>  <TGI>
> 100 µM

$$$$
>  <Compound>
COc1ccc(-c2nnc(Nc3nc(O)c(C4=c5cc(Br)ccc5=NC4=O)s3)o2)cc1

>  <TGI>
> 69.3 µM

$$$$

Let us move to another entry and its TGI.
Data point: CCCCCCCCCCCCCCCCCCOCC(O)CO (stereo not drawn) ; TGI = > 25 µM

====

Measured TGI, listed per entry for reference.
# Tested on: UACC-62 melanoma
# Assay overview: NCI tumour cell line growth inhibition, 48 h
# number only, unit µM dropped from output

>  <Compound>
NC(Cc1c[nH]c2cccc(F)c12)C(=O)O (stereo unspecified)

>  <TGI [µM]>
1990

$$$$
>  <Compound>
COC(=O)/C(C#N)=C/c1cc(C(C)(C)C)c(O)c(C(C)(C)C)c1

>  <TGI [µM]>
15.1

$$$$

Let us move to another entry and its TGI.
Data point: CN(C)C/C=C/C(=O)Nc1cc2c(Nc3cccc(Cl)c3F)ncnc2cc1OCCOC(F)F ; TGI = 11.1

====

# Tested on: HL-60(TB) leukemia
# Assay overview: NCI tumour cell line growth inhibition, 48 h
Measured TGI, listed per entry for reference.
# number only, unit µM dropped from output

>  <Compound>
CCC(=C(c1ccc(OCCN2CCCC2)cc1)c1ccc(OCCN2CCCC2)cc1)c1ccc(Cl)cc1

>  <Endpoint result>
1.27

$$$$
>  <Compound>
CC1OC(CC2C=CCc3c(O)c4c(c(O)c32)C(=O)c2ccccc2C4=O)CC(NC(=O)C(F)(F)F)C1O (stereo not given)

>  <Endpoint result>
26.7

$$$$

Let us move to another entry and its TGI.
Data point: Nc1no[n+]([O-])c1-c1nnc2c(n1)-c1ccccc1C2=O ; TGI = 5.54

====

# System: HCT-15 colon
# Assay overview: NCI tumour cell line growth inhibition, 48 h
Measured TGI, listed per entry for reference.

Some entries whose results are on file:
>  <Compound>
Oc1cc(O)c2c(c1)OC(c1ccc(O)c(O)c1)C(O)C2c1c(O)cc(O)c2c1OC(c1ccc(O)c(O)c1)C(O)C2 (centres undefined)

>  <Reported property>
TGI

>  <Endpoint result>
> 100 µM

$$$$
>  <Compound>
C1=Cc2cccc3occ(c23)C=C1

>  <Reported property>
TGI

>  <Endpoint result>
> 100 µM

$$$$
>  <Compound>
COc1cc(C(=O)OC2CC34CCNC35CC(OC5(OC)C2O)c2cc3c(cc24)OCO3)ccc1O (centres undefined)

>  <Reported property>
TGI

>  <Endpoint result>
> 100 µM

$$$$

Let us move to another entry and its TGI.
Data point: Oc1ccc(/C=N/NC(=S)Nc2cccnc2)nc1 ; TGI = > 100 µM

====

Measured TGI, listed per entry for reference.
# System: UACC-62 melanoma
# Assay overview: NCI tumour cell line growth inhibition, 48 h

Some entries whose results are on file:
>  <Molecule>
Cc1nn(C(=O)c2ccc(Cl)cc2)c2c1C(c1ccc(Cl)cc1)SC(N)=N2 (stereo not drawn)

>  <System tested>
UACC-62 melanoma

>  <Reported property>
TGI

>  <Endpoint result>
> 10 µM

$$$$
>  <Molecule>
COc1cccc(CCn2c(N)c(C#N)c3ccc([N+](=O)[O-])cc3c2=O)c1

>  <System tested>
UACC-62 melanoma

>  <Reported property>
TGI

>  <Endpoint result>
> 31.6 µM

$$$$

Let us move to another entry and its TGI.
Data point: N#CC(C#N)=Cn1c(=S)[nH]c2ccc([N+](=O)[O-])cc21 ; TGI = > 100 µM
